CONDITION DETAILS: human, serum;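 note: acute human liver injury from clinical signs plus serum ALT or AST above 6 N or alkaline phosphatase above 1.7 N, covering cytolytic, cholestatic and mixed forms, value counts references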
QUANTITY MEASURED: Hepatotoxicity (acute)
The answer should be a number; do not append a unit.

Sample records with Hepatotoxicity (acute):
CS(=O)(=O)c1ccc([C@@H](O)[C@@H](CO)NC(=O)C(Cl)Cl)cc1    1
CO[C@]12CC[C@@]3(C[C@@H]1[C@](C)(O)C(C)(C)C)[C@H]1Cc4ccc(O)c5c4[C@@]3(CCN1CC1CC1)[C@H]2O5    3
CCn1cc(C(=O)O)c(=O)c2cc(F)c(N3CCNCC3)cc21    9
CC(O)(P(=O)(O)O)P(=O)(O)O    0
CNCCC=C1c2ccccc2CCc2ccccc21    2

Q: Reported Hepatotoxicity (acute) for CCN(CC)CCCC(C)Nc1ccnc2cc(Cl)ccc12 (centres undefined) : what is it?
Result: 8

Q: Reported Hepatotoxicity (acute) for Cc1cn([C@H]2CC[C@@H](CO)O2)c(=O)[nH]c1=O : what is it?
Result: 0

Q: Reported Hepatotoxicity (acute) for CC(=O)Nc1c(I)c(NC(C)=O)c(I)c(C(=O)O)c1I : what is it?
Result: 0

Q: Reported Hepatotoxicity (acute) for CCCCCOC(=O)Nc1nc(=O)n([C@@H]2O[C@H](C)[C@@H](O)[C@H]2O)cc1F : what is it?
Result: 0

Recorded values, source ChEMBL document CHEMBL3137667.
